The reported measurements were obtained from the nanobody polyreactivity screen of Harvey et al. (2022).

Test: yeast display, Sf9 membrane polyspecificity reagent, FACS + sequencing; frameworks hold sequencing errors
ASSAY_ENDPOINT: polyreactivity (PSR sort gate)

[[record]]
ordered_residues = "QVQLVESGGGLVQAGGSLRLICAASGRIFWSNAMRWSRQAPGKVSELVAAISSGGSTYYADSVKGRFTISRDNAKNTVYLQMNRLKPEDTAVYYCATRGIQRGFSRWGGLDYWGQGTLVTVSS"
assay_endpoint = "polyreactivity (PSR sort gate)"
readout_value = "low polyreactivity"

[[record]]
ordered_residues = "QVQLVESGGGLVQAGGSLRLSCAASGSIFVPYAMGWYRQAPGKERELVAAISSGGGRTYYADSVKGRFTIARDNAKNTVYLQMNSLKPEDTAVYYCAARYYIGYGHRTYGYDYWGQGTQVTVSS"
assay_endpoint = "polyreactivity (PSR sort gate)"
readout_value = "high polyreactivity"

[[record]]
ordered_residues = "QVQLVETGGGLVQAGVSLRLSSAASGITIGKNAMGWYRQEPGKESELVAAITRDGGTNYADSVKGRFTISRDNSKNTVYLQMNRLKPEDTAVYYCAKRAYFYYGRYDYWGQGTQVTVSS"
assay_endpoint = "polyreactivity (PSR sort gate)"
readout_value = "low polyreactivity"

[[record]]
ordered_residues = "QVQLVESGGGLGQAGGSLRLSCAASGSIFGRYAMGWYRQAPGKERELVTVITSGGSTNYADSVKGRFTISRDNAKNTVYLQMNSVKPEDTAVFYCAVRPYELHRLADQHGGDDYWGQGTQVTVSS"
assay_endpoint = "polyreactivity (PSR sort gate)"
readout_value = "low polyreactivity"

[[record]]
ordered_residues = "QVQLVESGGGLVQAGGSLRLSSAASGRNFYANAMGWSRQAPGKERYFVAAISWGGGSTNYADSVKGRFTISRDNAKNTGYLQKNSQKPEDTAVYYCATGFYYYLTKTIPYEYEYWGLGTQVTVSS"
assay_endpoint = "polyreactivity (PSR sort gate)"
readout_value = "low polyreactivity"

[[record]]
ordered_residues = "QVQLVESGGGLVQAGGSLRLSCAASGSIFVGYTMGWYRQAPGKETELVADITYNGGTTYYADSVKGRFTISRDNAKNTVYLQMNSLKPEETAVYYCAADYYYACFPVYYWGQGTQVTVSS"
assay_endpoint = "polyreactivity (PSR sort gate)"
readout_value = "high polyreactivity"

[[record]]
ordered_residues = "QVQLVESGGGLVQAGGSLRLSCAASGSTFDPNAKGWYRQEPGKERELVAAISKSGGRTYYADSVKGRFTISRDNAKNTVYLQMNSLKPEDTAVYYCNARFGSRYNFFGLRYNYWGLGTQVTVSS"
assay_endpoint = "polyreactivity (PSR sort gate)"
readout_value = "high polyreactivity"

[[record]]
ordered_residues = "QVQLVESGGGLVQAGGSLRLSCAASGSIFVGYAMGWYRQAPGKERELVAAISWSGDSTYYADSVKGRFTISRDNAKNTVYLQMNSLKPEDTAVYYCAVDYAEIGPRREVEYDYWGQGTQVTVSS"
assay_endpoint = "polyreactivity (PSR sort gate)"
readout_value = "low polyreactivity"

[[record]]
ordered_residues = "QVQLIESGGGLVKAGGSLRLSCAATGSIFYRNTMGWYRQAPGKERELVARISWSGGRTYYADSVKGRFTISRDNAKNTVYLQMNSLKPEDTAVYYCAASTYGQRGTSYGYWGQGTQVSVSS"
assay_endpoint = "polyreactivity (PSR sort gate)"
readout_value = "low polyreactivity"

[[record]]
ordered_residues = "QVQLVESGGGLVQAGGSLRLSCAASGNTFYGYALGWYRPAPGKERELVASITLSGDSTHYADSVKGRFTISRDNAKNTVYVQMNSLKPEDTAVYYCAGVYTYPLGYYHYTYDYWGQGTQVTVSS"
assay_endpoint = "polyreactivity (PSR sort gate)"
readout_value = "low polyreactivity"


Now take the following sequence into account.
INPUT: Returns the measured polyreactivity (PSR sort gate) for the input sequence. Input: QVQLEESGGGLVQAGGSLRLSCAASGSIFKFYAMGWYRQAPGKEREFVAAIRQSGGRTYYADSVKGRFTISRDNAKNTVYLPMNSLKPEDTAVYYCAADGYYWEYYYWGQGTQVTVSS
OUTPUT: high polyreactivity

====

Assay: yeast display, Sf9 membrane polyspecificity reagent, FACS + sequencing; frameworks hold sequencing errors
ASSAY_ENDPOINT: polyreactivity (PSR sort gate)

[[record]]
ordered_residues = "QVQLVESGGGLVQAGGSLRLSCAASGSIFYFNAMGWYRQAPGKERELVAAINISGSSTSYADSVKGRFTISRDNAKNTVYLQMNSLKPEDTAVYYCYAGPYTYLHWNQAISRYYYWGQGTQVTVSS"
readout_value = "low polyreactivity"

[[record]]
ordered_residues = "QVQLVESGGGLVQAGGSLRLSCAASGSIFARYAMGWYRQAPGKERELVAAISSNSASTYYADSVKGRFTISRDNAKNTVYLQMNSLKPEDTAVYYCATAYRSYWLTDYSGQGTQVTVSS"
readout_value = "low polyreactivity"

[[record]]
ordered_residues = "QVQRVESGGGLVQAGGSLRLSCAASGITFYPYTMGWYRQAPGKQRELVAAISSSGGSTNYADSVKGRFTISRDNAKNSDYLQMISLKPDDSAVYYCAKRYAGNASSDGDSWGQGTQVTVSS"
readout_value = "low polyreactivity"

[[record]]
ordered_residues = "QVQLVESGGGLVQAGGSLRLSCAASGFTFTWYAMGWYRQAPGKERELVASISRSGGSTYYADSVKGRFTISRDNAKNTVYLQMNSLKPEDTAVYYCAAEIWLEYVGYDYWGQGTQVTVSS"
readout_value = "high polyreactivity"

[[record]]
ordered_residues = "QVQLVESGGGLVQAGGSLSLTCAASGRILYRYAMGWYRPAPGKERDLVAAISWSGGSTYYADSVKGRFTISRDNAKNTVYLQLYSLKPEDTAVYYCNAVRASRSGGFDYWGQGTQVTVSS"
readout_value = "high polyreactivity"


INPUT: Which measured polyreactivity (PSR sort gate) value corresponds to QVQLVESGGGLEQAGGSLRLSCAASGRTFYYYAMGWYRQAPGKERELVAAIRWRGGRTYADSVKGRFTISRDNAKNTVYLQMKSLKPEDTAVYYCAVDSFYRHASLYDYWGQGTQVTVSS ?
OUTPUT: high polyreactivity

INPUT: Can you check QVQLVESGGGLVQAGGSLRLSCAASGFIFGRNAMGWYRQAPGKERELVAAINWRGGSTYYADSVKGRCTISRDNAKNTVYLQMNSLKPEDTAVYYCAARGPYRYGYDYWGQGTQVTVSS next?
OUTPUT: high polyreactivity

====

Experiment: yeast display, Sf9 membrane polyspecificity reagent, FACS + sequencing; frameworks hold sequencing errors
ASSAY_ENDPOINT: polyreactivity (PSR sort gate)

Reference set, count: 6
[[record]]
ordered_residues = "QVQLVESGGGLVQAGGSLRLSCAASGRIFYAYAMGLYRQAPGKERELVAAITWSGGSTYYADSVKGRFTISRDNAKNTVYLQMNSLKQEDTAVYYCAADLRVKYVHTYSYVWYRYDYWGQGTQVTVSS"
readout_value = "high polyreactivity"

[[record]]
ordered_residues = "HVQLVESGGGLVQAGGSLRLSCAASARIFVTYAMGWYREAPGKETELVAAISSRGGRTNYADSVKGRFTISRDNAQNTVYLQMNSLKPEYTAVYYFAARYWYIYNYDYWGQGTQVTVSS"
readout_value = "high polyreactivity"

[[record]]
ordered_residues = "QVQLVESGGGLVQAGGSLRLSCAASGITFGSNAMGWYRQAPGKERELVAAINSGGTTTYADSVKGRFTISRDNAKNTVYLQMNSLKPEDTAVYYCAVSGGASYQFVGSPDTEHDYWGQGTQVTVSS"
readout_value = "low polyreactivity"

[[record]]
ordered_residues = "QVQLVESGGGLVQAGGSLRLSCAASGIIFSTYAMGWYRQAPGKERELVAAISSGGRTYYADSVKGRFTISRDNAKNTVYLQMNSLKPEDTAVYYCAASYYRYYSGWTPYYYWGQGTQVTVSS"
readout_value = "high polyreactivity"

[[record]]
ordered_residues = "QVQLVESGGGLVQAGGSLRLSCAASGRIFGSYAMGWYRQAPGKERELVAAISWRGTSTYYADSVKRRFTISRDNAKKTVYLQMNSLKPEDTAVYYCAARGLWPYDYWGQGTQVTVSS"
readout_value = "low polyreactivity"

[[record]]
ordered_residues = "QVQLVESGGGLVQAGGSLRLSCAASGITFTTYAMGWYRQAPGKERELVATINRGSRTNYADSVKGRFTISRDNAKNTVYLQMNSLKAEDTAVYYCAAHYTTFIPSPDGDYLGQGTQVTVSS"
readout_value = "low polyreactivity"


INPUT: // lookup polyreactivity (PSR sort gate) for QVQLVESGGGLVQAGGSLRLSCAASGGTFWLYTMGWYRQAPGKERELVAAITKSGGSTYYADSVKGRFTISRDNAKNTVYLQMNSLKPEDTAVYYCAARYSVYRDGYYWGQGTQVTVSS
OUTPUT: high polyreactivity

INPUT: Would you mind doing QVQLVESGGGLVQAGGSLRLTCAASGSIFHGNDMGWYRQAPGKETELVATISSGGSTYYADSVKGRFTSSRDNAKTTVYLQMNSLKPEDTAVYYCAAERFWPYKSYYWGQGTQVTVSS as well?
OUTPUT: low polyreactivity

INPUT: # repeat for QVQLVESGGGLVQAGGSLRLSCAASGFTFGVNAMGWYRQAPGKERELVAAISRSGGSTYYADSVKGRFTISRDNAKNTVYLEMNSLKPEDTAVYYCNKAYHRRDSEFGYWGQGTQVTVSS
OUTPUT: high polyreactivity

INPUT: Repeat with QVQLVDSRGGLLQAGGSLRLSCAASGSIISRNAKGWYRQAPGKESELVAAITRSGGSTYYADSVKGRFTISRENAKNTVYLQRNRLKPEDTAVYYCATPIFSARRYTGYVKYDYWAQGTQVTVSS
OUTPUT: high polyreactivity

INPUT: Next entry: QVQLVESGGGLVQAGGSLRLSCAASGSMFAAYAMGWYRQAPGKARELVAAISSGDGTYYADSVKGRFTISRDNAKNTVYLQRNSLKPEDTAVYYCNAYVSQRYRGSRYYYWGQGTQVTLSS
OUTPUT: high polyreactivity

INPUT: Same question, QVQLVESGGGLVQAGGSLRLSCAASGITFSRNAMGWYRQAPGKERELVAVISTRGGRTYYADSVKGRFTISRDNAKNTFYLQMNSLKPEDTAVYYCAASPDPYWRRMDYWGQGTQVTVSS this time
OUTPUT: high polyreactivity

INPUT: // repeat for QDQLVESGGGLVQAGCSLRLSCDASGSTSYGYAMGWYRQAPGKERELVASISYSGSSTYYADSVKGRFTFSRDNAKNTVYLQMNSLKPEDTAVYYCNAKVYPCVGPKHRYDYWGQCTQVTVSS and report
OUTPUT: low polyreactivity

INPUT: Now the same for QVQHVESGGGLVQAGGSLRLSCAASGNTFSANAMGWYRQAPVKEREFVASITWSGGSTYYADSVKGRFTFSRDNAKNTVYLQMNSLKPEDTAVYYCAAESWFKYDYWGQGTQVTVSS
OUTPUT: low polyreactivity

INPUT: Thanks! And QVQLGESGGGLVQAGGSLRLRCAASGYILWNAMGWYRQAPGKERELVAAIRFRGGSTSYADSVKGRFTISRDNAKNTVYLQMNSLKPEDTAVYYCNARWWVIRPYQRHDYWGQGTQVTVSS ?
OUTPUT: low polyreactivity

INPUT: Also QVQLVESGGGLVQAGGSLRLSCAASGFTFPRYVMGWYRQAPGKEREFVAAITFSGGSTYYADSVKGRFTNSRDNAKNTVYLQMNSLKPEDTAVYYCAAGASLWRLGLKMGYWGQGTQVTVSS , if possible.
OUTPUT: low polyreactivity

INPUT: Also QVQIVESGGGLVQAGGSLRLSCAASGRTFYYNAMGWYRQAPGKERELVAAITWSGGGTYYADSVKGRFTISRDNAKNTVYLQMNSLKPEDTAVYYCAKTPGWTDYDYWGQGTQVTVSS , if possible.
OUTPUT: high polyreactivity
